Test system: Plasmodium berghei
protocol details: Screen against P. berghei liver stage (PbLuc), transformed with Luciferase, at 2uM
Type: functional, HepG2
setup conditions: tested at 2 uM
The whole screen tested about 68,000 compounds, of which about 2,700 (4%) showed an effect of 50% or more. Only a selection was taken, and strong results are over-represented in it overall.
Note to self: use Yes only for INHIBITION readings below -30%; a reading exactly at -30% still gets No.

1) COc1ncccc1CNC1CCc2c(ccc(=O)n2CC2CC2)C1 (stereo unspecified): No
2) Cc1cccc(-c2ncc(CNC(C)Cc3ccncc3)cn2)c1 (stereo unspecified): No
3) Fc1cnc(N2CCOC3(CCN(Cc4ccsc4)CC3)C2)nc1: Yes
4) Cc1cccc(-c2ncc(CNC(C)CO)cn2)c1 (stereo unspecified): Yes
5) CCn1cncc1Cn1cccc(C(F)(F)F)c1=O: No

* * *

Tested on: Plasmodium berghei
protocol details: Screen against P. berghei liver stage (PbLuc), transformed with Luciferase, at 2uM
Format: functional, HepG2
setup conditions: tested at 2 uM
Hit rate of the full screen: of about 68,000 compounds, about 2,700 (4%) showed an effect of 50% or more. The list comes from a sample in which strong results are over-represented; it also holds close analogues and randomly drawn compounds.
property name: INHIBITION (%)

1) CC(C)c1nnc2n1CCN(C(=O)CN1CCc3sccc3C1)C2: -9.3
2) CC(C)c1nnc2n1CCN(C(=O)CN(C)Cc1ccccc1)C2: -58.05
3) Nc1nc2cn(C3CCCC3)c(=O)c-2c[nH]1: -33.11
4) CC(C)n1nc(CN2CCCC2)c2c1CN(CC1CC1)CC2: -29
5) CC(OCC1CC1)C(=O)Nc1cccc(C(=O)Nc2ccccn2)c1 (stereo unspecified): -5.74
6) CC(C)NC(=O)N1CCCC(c2nnc(CN3CCOCC3)n2C)C1 (stereo unspecified): 10.02
7) CCn1cncc1CN(Cc1ccc(OC)cc1OC)CC1CCCO1 (stereo unspecified): 33.64
8) COCCOC(=O)N1C[C@@H]2CC[C@H]1CN(C1Cc3ccccc3C1)C2: -31.79
9) CS(=O)(=O)Nc1cccc(C(=O)Nc2ccc3c(c2)C(=O)NC3)c1: -7.99
10) O=C1COc2ccc(C(=O)NS(=O)(=O)c3cc(F)ccc3F)cc2N1: -9.66
11) CCOc1ccc(OCCN2CCC(N3CCNC3=O)CC2)cc1: 12.81

* * *

Reported INHIBITION values for a set of compounds
Test system: Plasmodium berghei
protocol details: Screen against P. berghei liver stage (PbLuc), transformed with Luciferase, at 2uM
Type: functional, HepG2
setup conditions: tested at 2 uM
Among all 68,000 compounds or so, about 2,700 (4%) showed an effect of 50% or more. For the sample, strong results were picked, then their nearest neighbours and some compounds at random.
property name: INHIBITION (%)

1. COc1ncccc1CN1C[C@@H]2OCCN(CCN(C)C)[C@@H]2C1: 22.18
2. Cc1ccccc1-c1noc(CNc2ccc(F)cc2OCCO)n1: 20.77
3. Oc1cc(-c2ccccn2)nc(C2CCN(Cc3ccncc3)CC2)n1: -1.49
4. CCN1CC2(CCC1=O)CCN(CCc1nccn1C)CC2: 25.65
5. COc1cc(N2CCC(c3nccn3Cc3ccccc3)CC2)ncn1: -2.99
6. Cc1noc(C)c1-c1cccc(C2CCCNC2)n1 (configuration not stated): 29.48
7. CCN1CCO[C@]2(CCC[C@H]2COCc2csc(C)n2)C1: 32.95
8. Cn1ccc2c(C(=O)N3CCC(C(N)=O)CC3)cccc21: 40.31
9. Cc1cccc(OCCC(=O)N2CCCN(CC(N)=O)CC2)c1C: -5.2
10. CN(CCc1cccc2ccccc12)Cc1nc(N)nc(N(C)C)n1: -3.1
11. CN(CCC(O)c1ccccc1)c1cc(N2CCOCC2)ncn1 (configuration not stated): -3.38
12. CN1CCCC1CCn1ccnc1-c1ccc2ccccc2n1 (configuration not stated): 5.55

* * *

Tested on: Plasmodium berghei
protocol details: Screen against P. berghei liver stage (PbLuc), transformed with Luciferase, at 2uM
Format: functional, HepG2
setup conditions: tested at 2 uM
Screen size: about 68,000 compounds; about 2,700 (4%) showed an effect of 50% or more. For the sample, strong results were picked, then their nearest neighbours and some compounds at random.
property name: INHIBITION

1. O=C(NCc1cccnc1N1CCCCC1)c1ccc2cc[nH]c2c1: 15.75%
2. CCC(O)CN1CCN(C(=O)c2cc(Cl)cc3cccnc23)CC1 (stereo unspecified): -28.58%
3. O=C(Nc1cccnc1)[C@H]1C[C@H]2OCC[C@H]2N(Cc2ccc(F)cc2)C1: 26.62%
4. CC(C)NC(=O)[C@@H]1C[C@@H]2CCN(Cc3ccoc3)C[C@H]2O1: 0%
5. Cc1ccc2cc(C3(O)CCN(C(=O)CSC(C)C)CC3)ccc2n1: 70.17%
6. CS(=O)(=O)N1C[C@@H]2CC[C@H]1CN(Cc1ccncc1)C2: -56.9%
7. O=c1ccc(-n2ccnc2)nn1CCNS(=O)(=O)c1ccc(Cl)s1: -54.51%
8. Cc1ccc2cc(C3(O)CCN(C(=O)CN4CCCC4)CC3)ccc2n1: 8.65%
9. Cc1ccc2cc(C(=O)N3CCC(O)(C(F)(F)F)CC3)ccc2n1: -13.42%
10. Cc1ccc2cc(C3(O)CCN(C(=O)[C@@H]4CCCCN4)CC3)ccc2n1: 53.98%
11. Cc1ccc2cc(C(=O)N3CCN(C(=O)N(C)C)CC3)ccc2n1: 7.02%

* * *

System: Plasmodium berghei
protocol details: Screen against P. berghei liver stage (PbLuc), transformed with Luciferase, at 2uM
Assay type: functional, HepG2
setup conditions: tested at 2 uM
The campaign covered roughly 68,000 compounds. About 2,700 (4%) showed an effect of 50% or more. This is one part of a sample in which strong results are shown more often than they occur.
Reported INHIBITION values for a set of compounds
property name: INHIBITION (%)

1) COCCN1CCC12CCN(c1ncccn1)C2 (stereo unspecified): 30.96
2) O=C(c1ncccn1)N1C[C@@H]2CN(Cc3cccnc3)CCO[C@@H]2C1: 22.62
3) CCCc1cc(NCCN2CCNC2=O)n2nccc2n1: 68.39
4) CC(C)Nc1cccc(CC2CCN(S(C)(=O)=O)CC2)n1: 52.82
5) O=C(Nc1cccnc1)[C@H]1CN(C2CCCC2)C[C@H]2OCC[C@@H]12: -42.87
6) CCN(CC)c1ncc2c(c1C(=O)O)CCN(C1CCOC1)C2 (stereo unspecified): 24.51
7) Cc1cccc(CN2C[C@@H]3CN(C(=O)C4CC=CC4)C[C@@H]3C2=O)n1: 54.01
8) CC(=O)NCCNC(=O)c1cnc2c(c1)nc(-c1ccccc1Cl)n2C: -5.51
9) Cc1nc(CNC(=O)Nc2ccc(N(C)C)nc2)sc1C: 74.34
10) CCCC12CN3CC(C)(CN(C1)C3c1[nH]c(=O)[nH]c(=O)c1C)C2=O (stereo unspecified): 16.49
11) CN(C)CCOCC1CN(Cc2cccc(F)c2)Cc2nccn2C1 (stereo unspecified): -0.23
12) Cn1c(-c2ccccc2Cl)nc2cc(C(=O)NCCOCCO)cnc21: 2.7
13) Cc1cnc(N2C[C@H]3CN(Cc4csc(C)n4)C(=O)[C@H]3C2)nc1: 22.18
14) CCCc1cc(NCCCC2CCOC2)n2nccc2n1 (stereo unspecified): 26.35
15) CCn1ccnc1CN1CCN(c2ncnc3ccsc23)CC1C (stereo unspecified): -115.54
16) Cc1cc(-c2cnc(C(C)C)nc2CN(C)C(=O)c2ccccn2)on1: 56.57
17) O=C(c1cnccn1)N1CCN2C[C@H](OCc3ccccc3F)C[C@H]2C1: -6.88
18) Cc1ccc(CN2CCN(c3ncccc3C(N)=O)CC2CCO)cc1 (stereo unspecified): 3.92
19) CC(C)Nc1cccc(CC2CCN(C)C2)n1 (stereo unspecified): -5.42
20) CCN(CC)c1ccc(C(=O)N2C[C@H]3CC[C@@H](C2)N(CCOC)C3)cc1: -34.04
21) CN(C)c1ccc(NC(=O)NCc2ccccn2)cn1: 17.39
22) CCc1cc(NCCCC2CCOC2)n2nccc2n1 (stereo unspecified): -3.6
23) COCCN1CCc2ccc(=O)n(Cc3csc(C)n3)c2CC1: -80.01
24) Fc1cccc(-c2nnn3c2COCC(CNCc2nccs2)C3)c1 (stereo unspecified): 3.18
25) O=C(c1ccc2c(c1)OCO2)N1CCC[C@]2(C[C@H](OCC3CC3)CO2)C1: 10.43
26) COc1ncnc2c1CCN(c1cc(C(F)(F)F)ncn1)CC2: 52.08
27) CNC(=O)c1cccnc1N1CCN(Cc2ccccc2)C(CCO)C1 (stereo unspecified): -4.52
28) CN(C)CCNC(=O)c1cnc2c(c1)nc(-c1ccccc1Cl)n2C: -1.73
29) O=C(O)c1c(NC2CCC2)ncc2c1CCN(C1CCOC1)C2 (stereo unspecified): 45.12
30) CCOCCN1C[C@H](C(=O)Nc2cccnc2)[C@@H]2CCO[C@@H]2C1: 8.18
31) COc1ccc2c(c1)CCCN(C(C)C(=O)NC(C)C)C2 (stereo unspecified): 47.68
32) CCOc1ncnc2c1CCN(c1cc(C(F)(F)F)ncn1)CC2: -17.38
33) Cc1occc1C(=O)N1CCn2c(COCC3CC3)cnc2C1C (stereo unspecified): -5.65
34) Cc1ccc(C(=O)NCCNC(=O)c2cncnc2C)cc1F: -9.98
35) Cc1nc(NCCSc2nnc(C)s2)c2cccnc2n1: 21
36) CC(C)Oc1ncnc2c1CCN(c1cc(C(F)(F)F)ncn1)CC2: 20.86
37) Cc1ccc(CNC(=O)Nc2nccs2)cn1: -11.83
38) Cn1c(-c2ccccc2Cl)nc2cc(C(=O)NCC3(C)COC3)cnc21: 21.24
39) Cn1c(-c2ccccc2Cl)nc2cc(C(=O)NCC3(CO)CC3)cnc21: 58.53
40) CC(C)CNc1nnc(SC(C(=O)NCc2cccnc2)C(C)C)s1 (stereo unspecified): -16.56
41) Cc1ccc(C(=O)NCCNC(=O)c2cncnc2C(C)C)cc1F: 57.34
42) NC(=O)c1cccc(CC2CCN(C(=O)CO)C2)c1 (stereo unspecified): -5.6
43) Cc1cc(-c2cnc(C)nc2CN(C)C(=O)c2cc(C3CC3)on2)on1: 51.57
44) Cn1c(CCNC(=O)C2CCCN(C3CCOCC3)C2)n[nH]c1=O (stereo unspecified): -36.65
45) Cc1cc(-c2cnc(C3CC3)nc2CN(C)C(=O)c2ccccn2)on1: 34.06
46) Cn1c(CN2CCOC[C@H]2c2nc(C(C)(C)C)co2)nc2ccccc21: -39.35
